Listing of entries alongside the reported normalised cell viability.
- System: NCI-H1944;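 further: CTB read-out in 384-well plates, triplicate wells, NPI normalised per plate against 1 µM phenylarsine oxide (0) and 0.1% DMSO (1) controls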
- assay.comment: normalised cell viability (NPI; 0 = phenylarsine oxide control, 1 = DMSO control) (fraction of DMSO control); NCI-H1944 is a non-small cell lung cancer line; higher = more viable cells (less compound toxicity)
- assay.conditions: glucocorticoid arm: vehicle; compound 1 µM; 6 days
Counter-ions that a name gives are not always drawn. Over roughly 1,900 compounds, “normalised cell viability (NPI; 0 = phenylarsine oxide control, 1 = DMSO control)” has its median near 1; the lowest 2% begin near 0.039. Only a selection was taken, and the lowest values are over-represented in it overall.
Please reply with the value in numeric form only.

# annotated cases, reported normalised cell viability shown
- compound: "C1CN1c1nc(N2CC2)nc(N2CC2)n1 [Triethylenemelamine]"
  normalised cell viability: 0.993
- compound: "N[C@@H](Cn1ccc(=O)[nH]c1=O)C(=O)O [S(-)-Willardiine]"
  normalised cell viability: 1
- compound: "CCn1cnc2c(Nc3cccc(Cl)c3)nc(N[C@@H]3CCCC[C@@H]3N)nc21"
  normalised cell viability: 0.321
- compound: "COc1ccc2c3c1O[C@H]1C(=O)CC[C@@]4(O)C(C2)N(CC2CC2)CCC314 (stereo partly drawn) [3-Methoxynaltrexone hydrochloride]"
  normalised cell viability: 0.998
- compound: "CC12CCC3C(CCC4=C(O)C(=O)CCC43C)C1CCC2=O (stereo not drawn) [4-Androsten-4-ol-3,17-dione]"
  normalised cell viability: 0.995

query: Requested read-out: normalised cell viability. Entry: NC(CP(=O)(O)O)C(=O)O (racemic) [(±)-2-Amino-3-phosphonopropionic acid]
result: 0.988

query: Requested read-out: normalised cell viability. Entry: CCN(CCCl)CCOC(C)=O [Acetylethylcholine mustard hydrochloride]
result: 0.995

query: Requested read-out: normalised cell viability. Entry: COc1cc(CC(C)N)c(OC)cc1I (racemic) [(±)-DOI hydrochloride]
result: 0.998

query: Requested read-out: normalised cell viability. Entry: CC[C@@]1(O)C(=O)OCc2c1cc1n(c2=O)Cc2cc3ccccc3nc2-1 [(S)-(+)-Camptothecin]
result: 0.0279

query: Requested read-out: normalised cell viability. Entry: Cc1c(C(=O)c2cccc3ccccc23)c2cccc3c2n1[C@H](CN1CCOCC1)CO3 [( R)-(+)-WIN 55,212-2 mesylate]
result: 1.01

query: Requested read-out: normalised cell viability. Entry: CNc1ccc2oc(C[C@H]3O[C@@]4(CC[C@H]3C)O[C@H]([C@H](C)C(=O)c3ccc[nH]3)[C@H](C)C[C@H]4C)nc2c1C(=O)O [Calcimycin]
result: 0.91

query: Requested read-out: normalised cell viability. Entry: C[C@@]12N[C@@H](Cc3ccccc31)c1ccccc12 [(-)-MK-801 hydrogen maleate]
result: 0.992

query: Requested read-out: normalised cell viability. Entry: Cn1c(CCCC(=O)O)nc2cc(N(CCCl)CCCl)ccc21 [bendamustine hydrochloride]
result: 0.994
